# Tested on: Plasmodium falciparum
# ASSAY NOTES: Antimalarial activity against chloroquine-resistant Plasmodium falciparum K1 after 72 hrs by SYBR green dye-based spectrofluorometer analysis
# Format: functional, organism-based
# MEASUREMENT CONDITIONS: K1, 72 h
pEC50: −log10 of the molar value.
Quick list: pEC50 per entry.
VALUE TYPE: pEC50

compound="CCC(=O)OC1O[C@@H]2O[C@]3(C)CC[C@H]4[C@H](C)CC[C@@H]([C@H]1C)[C@@]24OO3 (stereo partly drawn)" value_type=pEC50 observed_result=9.52
compound="C[C@@H]1CC[C@H]2[C@@H](C)C(OC(=O)Cc3ccccc3)O[C@@H]3O[C@]4(C)CC[C@@H]1[C@]32OO4 (stereo partly drawn)" value_type=pEC50 observed_result=9.30
compound="CC(C)CNCCOC1O[C@@H]2O[C@]3(C)CC[C@H]4[C@H](C)CC[C@@H]([C@H]1C)[C@@]24OO3 (stereo partly drawn)" value_type=pEC50 observed_result=8.62

###

# Test system: Plasmodium falciparum
# ASSAY NOTES: Antimalarial activity against Plasmodium falciparum W2
# Type: functional, organism-based
VALUE TYPE: log10 IC50 (log10 of the value in ng/mL)

compound="COC(=O)CCC(OC1O[C@@H]2O[C@]3(C)CC[C@H]4[C@H](C)CC[C@@H]([C@H]1C)[C@@]24OO3)c1ccc(Cl)cc1 (some centres undefined)" target_system="Plasmodium falciparum" value_type="log10 IC50" observed_result=-0.18
compound=C[C@@H]1CC[C@H]2[C@](C)(Br)[C@@H](Nc3nccs3)O[C@@H]3O[C@]4(C)CC[C@@H]1[C@]32OO4 target_system="Plasmodium falciparum" value_type="log10 IC50" observed_result=-0.68
compound=CC[C@H]1O[C@@H]2O[C@]3(C)CC[C@H]4[C@H](C)CC[C@@H]([C@H]1C)[C@@]24OO3 target_system="Plasmodium falciparum" value_type="log10 IC50" observed_result=-0.54
compound="C[C@@H]1CC[C@H]2[C@@H](C)C(CCCO)O[C@@H]3O[C@]4(C)CC[C@@H]1[C@]32OO4 (some centres undefined)" target_system="Plasmodium falciparum" value_type="log10 IC50" observed_result=-0.64
compound=C[C@H]1[C@@H](CCO)O[C@@H]2O[C@]3(C)CC[C@H]4[C@H](C)CC[C@@H]1[C@@]24OO3 target_system="Plasmodium falciparum" value_type="log10 IC50" observed_result=-0.74
compound="COC(=O)CC[C@@H](OC1O[C@@H]2O[C@]3(C)CC[C@H]4[C@H](C)CC[C@@H]([C@H]1C)[C@@]24OO3)c1ccc(Cl)cc1 (some centres undefined)" target_system="Plasmodium falciparum" value_type="log10 IC50" observed_result=-0.20
compound="COC(=O)CC[C@H](OC1O[C@@H]2O[C@]3(C)CC[C@H]4[C@H](C)CC[C@@H]([C@H]1C)[C@@]24OO3)c1ccc(F)cc1 (some centres undefined)" target_system="Plasmodium falciparum" value_type="log10 IC50" observed_result=-0.31
compound=C[C@@H]1CC[C@H]2[C@](C)(Br)[C@@H](Nc3ccccc3)O[C@@H]3O[C@]4(C)CC[C@@H]1[C@]32OO4 target_system="Plasmodium falciparum" value_type="log10 IC50" observed_result=-0.20
compound=C[C@@H]1CC[C@H]2[C@](C)(Br)[C@@H](Nc3ncccn3)O[C@@H]3O[C@]4(C)CC[C@@H]1[C@]32OO4 target_system="Plasmodium falciparum" value_type="log10 IC50" observed_result=0.75

###

# Test system: Plasmodium falciparum
# ASSAY NOTES: Antimalarial activity against Plasmodium falciparum 3D7 after 72 hrs by SYBR green dye-based assay
# Type: functional, organism-based
# MEASUREMENT CONDITIONS: 3D7, 72 h
EC50 reference
VALUE TYPE: EC50 (nM)

chemical_structure=C[C@H]1[C@H](OC(=O)CCC(=O)Nc2ccc3ncnc(Nc4ccc(Cl)c(Cl)c4)c3c2)O[C@@H]2O[C@]3(C)CC[C@H]4[C@H](C)CC[C@@H]1[C@@]24OO3 observed_result=1.4
chemical_structure=C[C@H]1[C@H](OC(=O)CCC(=O)Oc2ccc(Nc3ncnc4ccccc34)cc2)O[C@@H]2O[C@]3(C)CC[C@H]4[C@H](C)CC[C@@H]1[C@@]24OO3 observed_result=3.8

###

# Test system: Plasmodium falciparum
# ASSAY NOTES: Antimalarial activity against Plasmodium falciparum HB3 after 48 hrs by [3H]hypoxanthine incorporation assay
# Format: functional, organism-based
pIC50: −log10 of the molar value.
VALUE TYPE: pIC50

chemical_structure=C[C@H]1[C@@H](Oc2cccc3ccccc23)O[C@@H]2O[C@]3(C)CC[C@H]4[C@H](C)CC[C@@H]1[C@@]24OO3 value_type=pIC50 observed_result=8.15
chemical_structure=C[C@H]1[C@H](Oc2cccc3ccccc23)O[C@@H]2O[C@]3(C)CC[C@H]4[C@H](C)CC[C@@H]1[C@@]24OO3 value_type=pIC50 observed_result=8.54

###

# Tested on: Plasmodium falciparum
# ASSAY NOTES: Antimalarial activity against Plasmodium falciparum W2
# Assay type: functional, organism-based
Each record here notes measured IC50.
VALUE TYPE: IC50 (ng/mL)

compound=CCC[C@H]1O[C@@H]2O[C@]3(C)CC[C@H]4[C@H](C)CC[C@@H]([C@H]1C)[C@@]24OO3 relation_symbol== observed_result=0.16
compound=C[C@@H]1CC[C@H]2[C@](C)(Br)[C@@H](Nc3cccc(F)c3)O[C@@H]3O[C@]4(C)CC[C@@H]1[C@]32OO4 relation_symbol=< observed_result=0.16
compound="COC(=O)CC[C@H](OC1O[C@@H]2O[C@]3(C)CC[C@H]4[C@H](C)CC[C@@H]([C@H]1C)[C@@]24OO3)c1ccc(Cl)cc1 (stereo partly specified)" relation_symbol== observed_result=0.794
compound="COC(=O)CC[C@@H](OC1O[C@@H]2O[C@]3(C)CC[C@H]4[C@H](C)CC[C@@H]([C@H]1C)[C@@]24OO3)c1ccc(F)cc1 (stereo partly specified)" relation_symbol== observed_result=0.398
compound=C[C@@H]1CC[C@H]2[C@](C)(Br)[C@@H](Nc3ccccn3)O[C@@H]3O[C@]4(C)CC[C@@H]1[C@]32OO4 relation_symbol== observed_result=1.19

###

A collection of compounds and their measured IC50
# Test system: Plasmodium falciparum
# ASSAY NOTES: Antimalarial activity against Plasmodium falciparum D6
# Format: functional, organism-based
VALUE TYPE: IC50 (ng/mL)

compound="COC(=O)CC[C@H](OC1O[C@@H]2O[C@]3(C)CC[C@H]4[C@H](C)CC[C@@H]([C@H]1C)[C@@]24OO3)c1ccc(F)cc1 (some centres not stated)" observed_result=0.616
compound=C[C@@H]1CC[C@H]2[C@](C)(Br)[C@@H](Nc3cccc(F)c3)O[C@@H]3O[C@]4(C)CC[C@@H]1[C@]32OO4 observed_result=0.16
compound=C[C@@H]1CC[C@H]2[C@](C)(Br)[C@@H](Nc3ncccn3)O[C@@H]3O[C@]4(C)CC[C@@H]1[C@]32OO4 observed_result=26
compound=C[C@H]1[C@@H](CCO)O[C@@H]2O[C@]3(C)CC[C@H]4[C@H](C)CC[C@@H]1[C@@]24OO3 observed_result=0.34
compound=C[C@@H]1CC[C@H]2[C@](C)(Br)[C@@H](Nc3ccccc3)O[C@@H]3O[C@]4(C)CC[C@@H]1[C@]32OO4 observed_result=3.42
compound="COC(=O)CC[C@@H](OC1O[C@@H]2O[C@]3(C)CC[C@H]4[C@H](C)CC[C@@H]([C@H]1C)[C@@]24OO3)c1ccc(Cl)cc1 (some centres not stated)" observed_result=0.727
compound="COC(=O)CC[C@H](OC1O[C@@H]2O[C@]3(C)CC[C@H]4[C@H](C)CC[C@@H]([C@H]1C)[C@@]24OO3)c1ccc(Cl)cc1 (some centres not stated)" observed_result=0.903
